The compounds listed here are annotated with their minimal effective concentration.
# Test system: IL-1β
# ASSAY NAME: Whole bovine blood assay, LPS-induced IL-1β (inhibition / overstimulation)
# Assay type: cell-based
# RECORDED CONDITIONS: drug concentration giving overstimulation (OS) of LPS-induced IL-1β, top concentration 250 μM
The reply should read as a number followed by its unit.

// query Indicate its recorded minimal effective concentration; the compound in question is CC[C@H]1OC(=O)[C@H](C)[C@@H](O[C@H]2C[C@@](C)(OC)[C@](O)(CN3CCCCC3)[C@H](C)O2)[C@H](C)[C@@H](O[C@@H]2O[C@H](C)C[C@H](N(C)S(=O)(=O)c3ccccc3)[C@H]2Oc2ccc(F)cc2)[C@](C)(O)C[C@@H](C)CN[C@H](C)[C@@H](O)[C@]1(C)O [Example C-54]
// result 6 µM

// query Indicate its recorded minimal effective concentration; the compound in question is CCCNC[C@]1(O)[C@H](C)O[C@@H](O[C@H]2[C@H](C)[C@@H](O[C@@H]3O[C@H](C)C[C@H](N(C)S(=O)(=O)c4nccn4C)[C@H]3Oc3cccc(CO)c3)[C@](C)(O)C[C@@H](C)CN[C@H](C)[C@@H](O)[C@](C)(O)[C@@H](CC)OC(=O)[C@@H]2C)C[C@@]1(C)OC [Example B-134]
// result 40 µM

// query Indicate its recorded minimal effective concentration; the compound in question is CCCNC[C@]1(O)[C@H](C)O[C@@H](O[C@H]2[C@H](C)[C@@H](O[C@@H]3O[C@H](C)C[C@H](N(C)S(=O)(=O)N(C)CC(F)(F)F)[C@H]3O)[C@](C)(O)C[C@@H](C)CN[C@H](C)[C@@H](O)[C@](C)(O)[C@@H](CC)OC(=O)[C@@H]2C)C[C@@]1(C)OC [Example B-112]
// result 40 µM

---

# Tested on: M. haemolytica
# ASSAY NAME: MIC, M. haemolytica strains
# Assay type: cell-based
# RECORDED CONDITIONS: Mannheimia haemolytica, M. haemolytica 33396
TEST READOUT: MIC

Take a look at these entries with their results.
{"columns": ["STRUCTURE SMILES STRING", "ASSAY TARGET", "RESULT VALUE"],
 "data": [
  ["CC[C@H]1OC(=O)[C@H](C)[C@@H](O)[C@H](C)[C@@H](O[C@@H]2O[C@H](C)C[C@H](N(C)S(=O)(=O)c3ccccc3)[C@H]2Oc2ccc(OC)cc2)[C@](C)(O)C[C@@H](C)CN[C@H](C)[C@@H](O)[C@]1(C)O", "M. haemolytica", "> 64 µg/mL"],
  ["CC[C@H]1OC(=O)[C@H](C)[C@@H](O[C@H]2C[C@@](C)(OC)[C@](O)(CN3CCCCC3)[C@H](C)O2)[C@H](C)[C@@H](O[C@@H]2O[C@H](C)C[C@H](N(C)S(=O)(=O)c3ccc(Cl)cc3)[C@H]2O)[C@](C)(O)C[C@@H](C)CN[C@H](C)[C@@H](O)[C@]1(C)O", "M. haemolytica", "> 128 µg/mL"]
]}

# evaluate next
// query Indicate its recorded MIC; the compound in question is "CCCNC[C@]1(O)[C@H](C)O[C@@H](O[C@H]2[C@H](C)[C@@H](O[C@@H]3O[C@H](C)C[C@H](N(C)S(=O)(=O)c4ccc(C)cc4)[C@H]3O)[C@](C)(O)C[C@@H](C)CN[C@H](C)[C@@H](O)[C@](C)(O)[C@@H](CC)OC(=O)[C@@H]2C)C[C@@]1(C)OC"
// result > 64 µg/mL
